tested on: Influenza A virus; experiment: Antiviral activity against Influenza A virus A/WSN/33(H1N1) infected in MDCK cells at 100 uM preincubated with virus for 15 mins followed by cells addition measured at 36 hrs post infection; assay type: functional, A/WSN/1933(H1N1)
MEASURED ATTRIBUTE: Activity

[[record]]
compound = "CC(=O)O[C@H]1C[C@@](C)(C(=O)O)C[C@H]2C3=CC(=O)[C@H]4[C@]5(C)CC[C@@H](O[C@@H]6O[C@H](C(=O)O)[C@@H](O)[C@H](O)[C@H]6O[C@H]6O[C@@H](CO)[C@H](O)[C@@H](O)[C@@H]6O[C@H]6O[C@H](C)[C@@H](O)[C@H](O)[C@@H]6O)C(C)(C)[C@H]5CC[C@]4(C)[C@@]3(C)CC[C@]12C"
value_reported = "47%"

[[record]]
compound = "COc1cc2oc(-c3ccc(O)cc3O)cc2c(OC)c1CC=C(C)C"
value_reported = ">30%"

[[record]]
compound = "CC(=O)O[C@H]1C[C@@](C)(C(=O)O)C[C@H]2C3=CC(=O)[C@H]4[C@]5(C)CC[C@@H](O[C@@H]6O[C@H](C(=O)O)[C@@H](O)[C@H](O)[C@H]6O[C@@H]6O[C@H](CO)[C@H](O)[C@H](O)[C@H]6O)C(C)(C)[C@H]5CC[C@]4(C)[C@@]3(C)CC[C@]12C"
value_reported = "47%"

[[record]]
compound = "CC1(C)[C@@H](O[C@@H]2O[C@H](C(=O)O)[C@@H](O)[C@H](O)[C@H]2O[C@@H]2O[C@H](C(=O)O)[C@@H](O)[C@H](O)[C@H]2O)CC[C@]2(C)[C@H]3C=CC4=C5C[C@@](C)(C(=O)O)CC[C@]5(C)CC[C@@]4(C)[C@]3(C)CC[C@@H]12"
value_reported = "47%"

[[record]]
compound = "CC(C)=CCc1c(O)cc2occ(-c3ccc(O)cc3O)c(=O)c2c1O [UNCINANONE A]"
value_reported = ">30%"


Hey, just so you know, these numbers are from ChEMBL document CHEMBL3808312.
